Data credit: patent US10214512B2

ASSAYED_TARGET: purified Human plasma Kallikrein (Homo sapiens (Human), UniProt P03952)
Sequence (P03952 391-638): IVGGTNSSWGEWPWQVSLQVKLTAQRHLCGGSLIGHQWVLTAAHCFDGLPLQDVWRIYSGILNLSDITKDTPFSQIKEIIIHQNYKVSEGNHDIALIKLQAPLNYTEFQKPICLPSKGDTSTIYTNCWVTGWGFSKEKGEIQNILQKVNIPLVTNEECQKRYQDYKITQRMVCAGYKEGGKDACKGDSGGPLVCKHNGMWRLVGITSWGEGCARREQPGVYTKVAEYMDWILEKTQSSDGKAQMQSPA
Sequence (P03952 20-390 partner): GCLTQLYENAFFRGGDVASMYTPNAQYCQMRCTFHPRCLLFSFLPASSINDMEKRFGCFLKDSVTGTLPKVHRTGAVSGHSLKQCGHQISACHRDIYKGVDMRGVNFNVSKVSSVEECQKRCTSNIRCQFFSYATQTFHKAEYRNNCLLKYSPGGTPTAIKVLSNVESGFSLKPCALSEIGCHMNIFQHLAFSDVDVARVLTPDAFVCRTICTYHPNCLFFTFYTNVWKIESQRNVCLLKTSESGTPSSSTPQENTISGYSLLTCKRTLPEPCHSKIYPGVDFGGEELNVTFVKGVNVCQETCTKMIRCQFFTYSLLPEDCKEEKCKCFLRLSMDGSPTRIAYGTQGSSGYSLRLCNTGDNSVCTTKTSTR
ASSAY_NOTES: Kallikrein Assay
Assay type: biochemical
EXPERIMENTAL_CONTEXT: purified Human plasma Kallikrein 0.5 nM; substrate Acetyl-K-P-R-AFC; 50 mM HEPES pH 7.4; Ki from IC50 by Cheng Prusoff
RECORDED_ENDPOINT: pKi
// scale note: pKi = -log10(conc_M); give the bare number

According to the records, this molecule COC(=O)Nc1ccc2c(c1)NC(=O)C(C)CCCC(c1ccc(-c3c(F)ccc(Cl)c3F)c[n+]1[O-])c1cccc-2c1 (single isomer, unassigned) [Example 50-a] displays pKi of 8.72

pKi measured on COC(=O)Nc1ccc2c(c1)NC(=O)[C@H](C)CCC[C@H](c1ccc(-c3c(F)cccc3F)c[n+]1[O-])c1nc-2c(C2CC2)[nH]1 (single isomer, unassigned) = 9.52

// pKi lookup, molecule = C[C@@H]1CCC[C@H](c2ccc(-c3ccccc3-n3cc(Cl)nn3)c[n+]2[O-])c2cccc(c2)-c2c(cnn2C(F)F)NC1=O (single isomer, unassigned) , result: 6.42

pKi for COC(=O)Nc1ccc2c(c1)NC(=O)CCCC[C@H](c1ccc(-c3c(F)cccc3C(F)(F)F)c[n+]1[O-])c1nc-2c(C)[nH]1 (single isomer, unassigned) is 8.53

pKi for COC(=O)Nc1ccc2c(c1)NC(=O)[C@H](C)CCC[C@H](c1ccc(-c3c(OC(F)F)ccc(F)c3F)c[n+]1[O-])c1nc-2c(C)[nH]1 (single isomer, unassigned) is 9.29

# pKi of CCc1[nH]c2nc1-c1ccc(NC(=O)OC)cc1NC(=O)[C@@H](C)CCC[C@@H]2c1ccc(-c2c(F)cccc2OC(F)F)c[n+]1[O-] (single isomer, unassigned) = 8.46

Recorded pKi (molecule COC(=O)Nc1ccc2c(c1)NC(=O)[C@@H](C)CCC[C@H](c1ccc(-c3c(OC(F)F)ccc(F)c3F)c[n+]1[O-])c1nc-2c(C)[nH]1 (single isomer, unassigned) ): 8.82

get_value(item= COC(=O)Nc1ccc2c(c1)NC(=O)CC[C@@H](C)C[C@@H](c1ccc(-c3c(F)ccc(Cl)c3F)c[n+]1[O-])c1nc-2c(C)[nH]1 (single isomer, unassigned) , readout=pKi) returns 7.54

pKi recorded for this molecule, COC(=O)Nc1ccc2c(c1)NC(=O)CCCC[C@H](c1ccc(-c3cc(F)ccc3OC(F)F)c[n+]1[O-])c1nc-2c(C)[nH]1 (single isomer, unassigned) , is 8.76

Quick note, pKi for O=C1CCCC[C@H](c2ccc(-c3cc(Cl)ccc3-n3cnnn3)cn2)c2cccc(c2)-c2cc(F)ccc2N1 landed at 6.69
